tested on: MDA-MB-468 breast; assay: NCI-60 one-dose screen, 48 h (100 = growth as untreated, 0 = no growth, -100 = all killed); conditions: 10 µM unless noted
Compounds without any hit were thinned out: in the full panel of roughly 83,000, 20% have a hit.
# note: exactly 50% is not below, so it is false; use true for growth strictly under it

Solved cases (5 shown):
INSERT INTO results (compound, label_class) VALUES
  ('COc1ccc2c(c1)O/C(=C\c1ncc([N+](=O)[O-])n1C)C2=O', 'true'),
  ('CC(C)C(=O)c1ccc(Cl)s1', 'false'),
  ('O=C(N/N=C/c1ccccc1O)c1ccccc1O', 'true'),
  ('Clc1cccc(CNc2c3ccccc3nc3ccccc23)c1', 'true'),
  ('COc1cc(/C=C/C(=O)c2ccc(NC(=O)CSc3nnc(-c4cc(-c5ccccc5)nc5ccccc45)n3-c3ccccc3)cc2)cc(OC)c1OC', 'false');

QUERY: # TODO verify growth < 50% strictly for this compound: `CCCCCCCSc1ncnc2[nH]ncc12`
RESULT: false

QUERY: # TODO verify growth < 50% strictly for this compound: `O=c1oc2ccc3ccccc3c2cc1-c1ccnc2[nH]c(=S)[nH]c(=O)c12`
RESULT: false

QUERY: # TODO verify growth < 50% strictly for this compound: `Oc1ccc(Cl)cc1-c1cc(-c2ccccc2Cl)[nH]n1`
RESULT: true

QUERY: # TODO verify growth < 50% strictly for this compound: `C=CC(=O)Nc1cc2c(Nc3ccc(F)c(Cl)c3)ncnc2cc1C#CC(C)(C)N1CCN(C)CC1`
RESULT: true

----------
test system: UO-31 renal; experiment: NCI-60 one-dose screen, 48 h (100 = growth as untreated, 0 = no growth, -100 = all killed); details: 10 µM
Compounds without any hit were thinned out: in the full panel of roughly 83,000, 20% have a hit. Activity calls are given as the source filed them. How the source made its calls: active means growth percent below 10; inactive means the rest.
EXPERIMENTAL_READOUT: growth

QUERY: Please report growth with UO-31 renal for item `O=C(c1ccc(F)cc1)C(c1c[nH]c2ccccc12)c1c[nH]c2ccccc12` .
RESULT: 43.8% (inactive)

QUERY: Please report growth with UO-31 renal for item `COc1cc(Nc2nc(O)c(/C=C3\C=Nc4ccccc43)s2)cc(OC)c1OC` .
RESULT: -48.9% (active)

QUERY: Please report growth with UO-31 renal for item `O=C(Nc1ccc(Oc2ncnc3scc(Nc4n[nH]c(=S)s4)c23)cc1)C1(C(=O)Nc2cccc(C(F)(F)F)c2)CC1` .
RESULT: 69.4% (inactive)

QUERY: Please report growth with UO-31 renal for item `Cc1ccc2c(c1)C(=O)/C(=C/c1ccc([N+](=O)[O-])cc1)S2` .
RESULT: 58.2% (inactive)

QUERY: Please report growth with UO-31 renal for item COc1cc(C2CC(c3ccccc3)=Nc3c(N)nc(N)nc3N2)ccc1Oc1nc(NCCO)nc(N2CCOCC2)n1 (configuration not stated) .
RESULT: 94.2% (inactive)

QUERY: Please report growth with UO-31 renal for item `C#C[C@]1(O)CC[C@H]2[C@@H]3CC=C4c5sc(Nc6cc(C)cc(C)n6)nc5CC[C@]4(C)[C@H]3CC[C@@]21C` .
RESULT: -65.9% (active)

QUERY: Please report growth with UO-31 renal for item `Cc1ccc2c(c1)C(=O)/C(=C/c1c[nH]c3ccccc13)S2` .
RESULT: 40.4% (inactive)

QUERY: Please report growth with UO-31 renal for item `CC(C)(C)c1cc(/C=C2\S/C(=N/c3ncn[nH]3)NC2=O)cc(C(C)(C)C)c1O` .
RESULT: 15.1% (inactive)

QUERY: Please report growth with UO-31 renal for item `O=C(CSc1nc2ccccc2c(=O)n1-c1ccc(Cl)cc1)Nc1ccc(-c2nc3ccc([N+](=O)[O-])cc3[nH]2)cc1` .
RESULT: 74.3% (inactive)

QUERY: Please report growth with UO-31 renal for item C#CCOc1cc(N(CC)CC)ccc1C(C(=O)NC(C)(C)C)N(C(=O)C1CCc2cc(F)ccc2O1)c1ccc(F)cc1F (configuration not stated) .
RESULT: 27.7% (inactive)

QUERY: Please report growth with UO-31 renal for item CC1(C)CC[C@]2(C(=O)O)CC[C@]3(C)C(=CCC4[C@@]5(C)C[C@@H](O)[C@@H]6OC(c7cccc(F)c7)OC[C@@]6(C)C5CC[C@]43C)C2C1 (some centres not stated) .
RESULT: 34.2% (inactive)

QUERY: Please report growth with UO-31 renal for item `COc1cc(-c2nc3ccc(C)cc3[nH]2)ccc1OCc1nnc(-c2ccccc2Br)o1` .
RESULT: 61.8% (inactive)

QUERY: Please report growth with UO-31 renal for item `COc1ccc(Cc2nn(CC(=O)N/N=C/c3ccc([N+](=O)[O-])cc3)c(=O)c3c(C)noc23)cc1` .
RESULT: 63% (inactive)

QUERY: Please report growth with UO-31 renal for item `Cc1cc(N=C2NC(=O)/C(=C/c3cc(C(C)(C)C)c(O)c(C(C)(C)C)c3)S2)n[nH]1` .
RESULT: 16.7% (inactive)

QUERY: Please report growth with UO-31 renal for item `COc1ccc(-n2c(SCC(=O)NNS(=O)(=O)c3ccccc3)nc3ccc(Cl)cc3c2=O)cc1` .
RESULT: 63.5% (inactive)
